measurement protocol: qHTS for Inhibitors of human tyrosyl-DNA phosphodiesterase 1 (TDP1): qHTS in cells in absence of CPT; also: nearly all actives have a fitted effect of over 55% in size
measurement conditions: DT40 Tdp1-/- hTDP1 cells, no CPT, ATP luminescence, 48 h
Among all 420,000 compounds or so, about 64,000 (15%) were called active. Not shown: some 27% with an inconclusive outcome. Calls follow the shape of the dose curve; as a rule, active = well fitted inhibition curve with a large enough effect; inconclusive = small, poorly fitted or top-dose-only effect; inactive = flat fitted curve, though single readings scatter. A selection follows.
Outcomes: 1 = active, 0 = inactive

| molecule | assigned category |
| --- | --- |
| CC1CCN(C(=O)c2ccc(CSc3ccc(Cl)cc3)cc2)CC1 | 1 |
| C=C(C)Cn1c(N2CCCC2)nc2c1c(=O)[nH]c(=O)n2C | 0 |
| COc1ccc(-c2ccc(OC(=O)NC3CCS(=O)(=O)C3)cc2)cc1 (stereo not given) | 1 |
| O=C(NCc1ccccc1Cl)c1csc([C@@H]2O[C@H](CO)[C@@H](O)[C@H]2O)n1 | 0 |
| O=C1[C@H]2[C@@H](c3ccc(Cl)cc3)N3C(=O)N(c4cccc(F)c4)C(=O)[C@@]3(Cc3ccccc3)[C@H]2C(=O)N1C1CCCCC1 | 0 |
| CCn1c(SCC(=O)N(C)C2CCS(=O)(=O)C2)nnc1-c1cccs1 (stereo not given) | 0 |
| Cc1cccc(OCC(O)Cn2c(N3CCCCC3)nc3c2c(=O)[nH]c(=O)n3C)c1 (stereo not given) | 1 |
| COc1ccc(CC(NC(C)=O)C(=O)NC2CCN(C(=O)c3ccc(Cl)cc3)CC2)cc1 (stereo not given) | 0 |
| Cc1cccc(N2C(=O)N3[C@H](c4ccc(F)cc4)[C@@H]4C(=O)N(C5CCCCC5)C(=O)[C@@H]4[C@]3(Cc3ccccc3)C2=O)c1 | 0 |
| CC(=O)Nc1ccc(NC(=O)CSc2ncnc3c2cnn3Cc2ccccc2)cc1 | 0 |
| Cc1nnc(SCCCn2c(N3CCCCC3)nc3c2c(=O)[nH]c(=O)n3C)s1 | 0 |
| COc1ccc(CNc2nc3c(c(=O)[nH]c(=O)n3C)n2Cc2ccccc2)cc1 | 0 |
| Cc1ccccc1-n1cc(CNC(=O)CC2C(=O)NCCN2C/C=C/c2ccccc2)cn1 (stereo not given) | 0 |
| Cc1nc(C(F)(F)F)ccc1C(=O)N1CCC1(C)C(=O)NS(=O)(=O)c1ccccc1Cl (stereo not given) | 0 |
| CCC(C)Sc1nc2c(c(=O)[nH]c(=O)n2C)n1CC(O)COc1cccc2ccccc12 (stereo not given) | 1 |
| Cn1cc(C(=O)c2ccc(Cl)cc2Cl)cc1C(=O)NN | 0 |
| Cn1c(=O)[nH]c(=O)c2c1nc(N1CCN(C(c3ccccc3)c3ccccc3)CC1)n2CCO | 1 |
| O=C(COC(=O)c1ccc(N2CCCC2=O)cc1)c1ccc(OC(F)F)cc1 | 0 |
| C=C(C)Cn1c(N2CCN(CC)CC2)nc2c1c(=O)[nH]c(=O)n2C | 0 |
| CC(C)CNC(=S)NNC(=O)c1ccccc1OC(F)F | 0 |
